Listing of entries alongside the reported kinact.
Target: CDK7/cyclinH/MAT1 trimeric complex (Homo sapiens, UniProt P50613)
Sequence (P50613 whole entry): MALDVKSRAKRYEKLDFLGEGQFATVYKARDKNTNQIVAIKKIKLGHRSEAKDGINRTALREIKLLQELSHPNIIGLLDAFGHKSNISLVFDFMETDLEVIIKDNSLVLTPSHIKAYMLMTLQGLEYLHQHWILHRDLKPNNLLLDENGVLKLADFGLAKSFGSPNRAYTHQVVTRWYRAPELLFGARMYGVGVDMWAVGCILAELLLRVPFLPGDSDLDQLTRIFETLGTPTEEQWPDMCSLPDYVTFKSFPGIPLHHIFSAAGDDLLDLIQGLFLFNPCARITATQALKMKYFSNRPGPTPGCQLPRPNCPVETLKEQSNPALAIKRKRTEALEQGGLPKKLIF
Sequence (P51946 whole entry partner): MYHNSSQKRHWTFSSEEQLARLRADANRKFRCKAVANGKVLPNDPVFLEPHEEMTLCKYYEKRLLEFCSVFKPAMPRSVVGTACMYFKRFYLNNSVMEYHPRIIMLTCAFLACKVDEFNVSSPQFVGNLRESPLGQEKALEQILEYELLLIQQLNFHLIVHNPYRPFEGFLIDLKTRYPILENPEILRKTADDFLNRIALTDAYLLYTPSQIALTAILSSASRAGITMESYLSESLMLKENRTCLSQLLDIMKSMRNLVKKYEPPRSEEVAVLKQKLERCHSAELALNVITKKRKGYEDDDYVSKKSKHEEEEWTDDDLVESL
Sequence (P51948 whole entry partner): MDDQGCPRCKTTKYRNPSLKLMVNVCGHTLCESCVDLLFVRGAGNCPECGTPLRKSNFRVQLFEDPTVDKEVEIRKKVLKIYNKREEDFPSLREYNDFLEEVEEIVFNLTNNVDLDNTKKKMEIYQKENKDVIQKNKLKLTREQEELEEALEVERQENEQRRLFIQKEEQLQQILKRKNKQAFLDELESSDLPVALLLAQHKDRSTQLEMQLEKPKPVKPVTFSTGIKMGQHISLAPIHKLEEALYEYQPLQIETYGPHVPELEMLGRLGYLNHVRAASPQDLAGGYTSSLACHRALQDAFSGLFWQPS
Test: In vitro CDK7 assay, potency of irreversible covalent inhibitors (kinact/KI), coupled PK/LDH ADP readout at 340 nm
Conditions: read-out: CDK7 (20 nM enz.) (kinact, s^−1), 20 nM enzyme

| molecule | kinact [s⁻¹] |
| --- | --- |
| C=CC(=O)N1CC(N2CCC(c3cc(C#N)c4c(c3)Nc3nccc(N5CCOCC5)c3C(C)O4)CC2)C1 (stereo not drawn) | 5.53e-05 |
| C=CC(=O)N1CC[C@H](N2CC(c3cc(C)c4c(c3)Nc3nccc(-c5cnn(C)c5)c3CO4)C2)C1 (single isomer, unassigned) [Compound 361] | 5.06e-05 |
| C=CC(=O)N1CCC(N2CC(c3cc4c(c(C5CC5)n3)O[C@@H](C)c3c(N5CCOCC5)ccnc3N4)C2)CC1 (single isomer, unassigned) | 2.58e-05 |
